Assayed system: ATP-dependent translocase ABCB1 (Homo sapiens)
The class of a record is decided solely by its measured EC50; consult lo = under 3 µM, med = from 3 µM up to 6 µM, hi = 6 µM and over

• CC(C)[C@H](N[C@H]1c2cc(C#N)ccc2OC(C)(C)[C@@H]1O)C(=O)OC(C)(C)C = lo
• O=C(c1ccccc1)c1cccc(OC[C@H](O)CN2CCOCC2)c1 = hi
• CC1(C)Oc2ccc(C#N)cc2[C@H](NCc2ccccc2)[C@H]1O = hi
• CCCNC[C@@H](O)Cn1c(C)c(C(=O)CCc2ccccc2)c(=O)n1-c1ccccc1 = hi
• O=C(CCc1ccccc1)c1ccccc1OC[C@H](O)CNc1ccc([N+](=O)[O-])cc1 = lo
• C[C@@H](C(=O)OC(C)(C)C)N(C)[C@H]1c2cc(C#N)ccc2OC(C)(C)[C@@H]1O = med
• O=C(c1ccccc1)c1ccc(OC[C@H](O)CN2CCOCC2)cc1 = med
• O=C1C[C@H](CN2CCCCC2)Oc2ccccc21 = hi
• CO[C@H](CCc1ccccc1)c1ccccc1OC[C@H](O)CN1CCN(c2ccc(F)cc2)CC1 = lo
• Cc1ccc(CCC(=O)c2ccccc2OC[C@H](O)CN2CCN(c3ccccc3C)CC2)cc1 = lo

###

Recorded pEC50 by entry
Assayed system: ATP-dependent translocase ABCB1 (Homo sapiens, UniProt P08183)
Sequence (P08183 whole entry): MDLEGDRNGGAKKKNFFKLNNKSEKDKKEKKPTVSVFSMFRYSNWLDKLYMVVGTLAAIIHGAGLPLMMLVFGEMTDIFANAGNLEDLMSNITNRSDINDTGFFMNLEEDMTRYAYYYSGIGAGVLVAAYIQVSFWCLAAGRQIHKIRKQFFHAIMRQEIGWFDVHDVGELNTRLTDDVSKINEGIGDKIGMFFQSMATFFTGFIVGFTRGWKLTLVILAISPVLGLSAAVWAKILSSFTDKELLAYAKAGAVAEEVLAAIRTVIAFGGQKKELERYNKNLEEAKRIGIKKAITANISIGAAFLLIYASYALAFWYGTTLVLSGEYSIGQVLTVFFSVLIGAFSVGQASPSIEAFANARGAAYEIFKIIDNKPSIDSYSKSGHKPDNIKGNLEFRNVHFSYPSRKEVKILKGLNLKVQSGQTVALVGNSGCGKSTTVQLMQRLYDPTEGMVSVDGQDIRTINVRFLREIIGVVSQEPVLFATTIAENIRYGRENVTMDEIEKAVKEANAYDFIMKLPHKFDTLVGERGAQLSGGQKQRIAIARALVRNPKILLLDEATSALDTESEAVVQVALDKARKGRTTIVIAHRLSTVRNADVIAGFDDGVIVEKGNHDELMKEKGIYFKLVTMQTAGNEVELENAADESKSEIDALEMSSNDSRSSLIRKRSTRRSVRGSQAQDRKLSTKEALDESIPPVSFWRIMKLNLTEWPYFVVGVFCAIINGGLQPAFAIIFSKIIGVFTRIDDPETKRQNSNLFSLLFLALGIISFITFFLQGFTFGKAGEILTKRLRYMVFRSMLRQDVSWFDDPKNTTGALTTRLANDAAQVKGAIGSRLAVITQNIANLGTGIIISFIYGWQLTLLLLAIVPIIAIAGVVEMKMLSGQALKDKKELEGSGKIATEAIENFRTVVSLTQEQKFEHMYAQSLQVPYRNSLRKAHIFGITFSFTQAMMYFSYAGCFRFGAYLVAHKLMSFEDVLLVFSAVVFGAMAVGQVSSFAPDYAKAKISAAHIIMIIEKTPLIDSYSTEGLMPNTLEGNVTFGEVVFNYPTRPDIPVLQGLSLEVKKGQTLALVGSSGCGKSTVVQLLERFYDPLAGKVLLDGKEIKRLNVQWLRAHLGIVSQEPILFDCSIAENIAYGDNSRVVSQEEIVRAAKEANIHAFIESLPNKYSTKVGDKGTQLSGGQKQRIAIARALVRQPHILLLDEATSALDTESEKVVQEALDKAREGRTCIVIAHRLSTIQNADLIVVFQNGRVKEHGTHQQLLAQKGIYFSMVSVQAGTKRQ
pEC50: −log10 of the molar value.
Measured property: pEC50

• CC[C@H](C)c1ccc(N2C(=O)c3ccccc3N[C@H]2c2ccc(C(C)C)cc2)cc1 = 6.54
• CC(C)N(C[C@@H](O)COc1ccc(C(=O)c2ccccc2)cc1)C(C)C = 6.36
• CCN(CC)CCC[C@H](C)N[C@@H]1c2ccccc2N[C@H](C)[C@@H]1OC(=O)c1ccc(C)cc1 = 6.48
• Cc1ccccc1N1CCN(C[C@@H](O)COc2ccccc2C(=O)CCc2ccc(N(C)C)cc2)CC1 = 7.89
• CC(C)(C)c1ccc(N2C(=O)c3ccccc3N[C@H]2c2ccc3c(c2)OCO3)cc1 = 6.13
• O=C(c1ccccc1)c1cccc(OC[C@H](O)CN2CCN(c3ccc(F)cc3)CC2)c1 = 6.24
• O=C(CCc1ccccc1)c1ccccc1OC[C@H](O)CNC1CCCCC1 = 6.47
• CCC/N=C(/CCc1ccccc1)[C@H]1C(=O)N(c2ccccc2)N=C1C = 5.43
• CCC(=O)c1ccccc1OC[C@H](O)CNCCC(c1ccccc1)c1ccccc1 = 6.92

###

Assayed system: UniProt:P08183
pEC50: −log10 of the molar value.
Measured property: pEC50

* CC(=O)c1cc(C)ccc1OC[C@H](O)CN1CCOCC1 | 4.90
* CC(C)(C)O[C@H](CCc1ccccc1)c1ccccc1OC[C@H](O)CN1CCCCC1 | 6.40
* CC[C@H](C)c1ccc(N2C(=O)c3ccccc3N[C@H]2c2ccc(OC)cc2)cc1 | 6.12
* Cc1ccc(-c2n[nH]c3c2[C@@H](c2ccc(N(C)C)cc2)C(C#N)=C(N)O3)cc1 | 5.51
* CC(C)[C@@H](C(=O)OC(C)(C)C)N(C)[C@H]1c2cc(C#N)ccc2OC(C)(C)[C@@H]1O | 5.87
* O=C1c2cccc(OC[C@H](O)CN3CCCCC3)c2C[C@H]1Cc1ccccc1 | 6.85
* CCN(CCO)[C@@H]1c2ccccc2N(C(=O)c2ccc(C)cc2)[C@H](C)[C@@H]1O | 5.04
* CC(=O)c1cc(C)ccc1OC[C@H](O)CN1CCN(c2ccc(F)cc2)CC1 | 5.44
* Cc1cccc(N2CCN(C[C@@H](O)COc3cccc(C(=O)CCc4cccc5ccccc45)c3)CC2)c1C | 6.58
* Cc1ccccc1N1CCN(C[C@@H](O)COc2cccc(C(=O)CCc3ccccc3)c2)CC1 | 7.13
* CO[C@H](CCc1ccccc1)c1ccccc1OC[C@H](O)CNCCC(c1ccccc1)c1ccccc1 | 6.12
* CC(C)N(C[C@@H](O)COc1ccc(OCc2ccccc2)cc1C(=O)CCc1ccccc1)C(C)C | 7.09
* CC(=O)c1ccc(OC[C@H](O)CN2CCOCC2)cc1 | 3.52
* CC(C)[C@@H]1C(=O)O[C@H]2[C@@H](c3cc(C#N)ccc3OC2(C)C)N1C | 4.10
* O=C1CCc2cccc(OC[C@H](O)CN3CCCCC3)c21 | 5.01
* CCN(CC)C[C@@H](O)COc1ccccc1C(=O)CCc1ccccc1 | 6.04
* CC(C)[C@H](C(=O)OC(C)(C)C)N(C)[C@H]1c2cc(C#N)ccc2OC(C)(C)[C@@H]1O | 6.01
* O=C(CCc1ccccc1)c1cccc(OC[C@H](O)CNCCC(c2ccccc2)c2ccccc2)c1 | 6.72
* CC(C)(C)OC(=O)CN[C@H]1c2cc(C#N)ccc2OC(C)(C)[C@@H]1O | 4.33
* COc1ccc([C@@H]2Nc3ccccc3C(=O)N2c2ccc(Oc3ccccc3)cc2)cc1 | 6.00

###

These compounds were tested on ATP-dependent translocase ABCB1 (Homo sapiens); EC50 is the recorded read-out.
Measured property: EC50 (nM)

• O=C(CCc1ccccc1)c1ccccc1OC[C@H](O)CN1CCN(c2ccc(F)cc2)CC1 = 70.8
• Cc1ccccc1N1CCN(C[C@@H](O)COc2cccc(C(=O)c3ccccc3)c2)CC1 = 204
• O=C(CCc1ccccc1)c1ccccc1OC[C@H](O)CNCCC(c1ccccc1)c1ccccc1 = 724
• Cc1ccccc1N1CCN(C[C@@H](O)COc2ccc(C(=O)CCc3cccc4ccccc34)cc2)CC1 = 407
• CC(=O)c1ccccc1OC[C@H](O)CN1CCOCC1 = 67600
• O=C(CCc1ccccc1)c1ccccc1OC[C@H](O)CN1CCCCC1 = 603
• Cc1c(C(=O)c2ccccc2)c(=O)n(-c2ccccc2)n1C[C@H](O)CNC(C)C = 83200
• CCCCNC[C@@H](O)Cn1c(C)c(C(=O)CCc2ccccc2)c(=O)n1-c1ccccc1 = 2690
• CC(C)[C@H](N[C@H]1c2cc(C#N)ccc2OC(C)(C)[C@@H]1O)C(=O)O = 2690
• CC(=O)c1cc(C)ccc1OC[C@H](O)CN1CCN(c2ccc(C)cc2)CC1 = 3160

###

Assayed system: ATP-dependent translocase ABCB1 (Homo sapiens)
Recorded EC50 by entry
Measured property: EC50

* O=C(CCc1cccc2ccccc12)c1ccccc1OC[C@H](O)CNCCC(c1ccccc1)c1ccccc1 | 724 nM
* CC(C)(C)OC(=O)CN(Cc1ccccc1)[C@H]1c2cc(C#N)ccc2OC(C)(C)[C@@H]1O | 2000 nM
* CC(C)N(C[C@@H](O)COc1ccccc1C(=O)CCc1ccccc1)C(C)C | 380 nM
* O[C@@H](COc1ccccc1[C@H](O)CCc1ccccc1)CN1CCN(c2ccc(F)cc2)CC1 | 676 nM
* COc1ccc(N2CCN(C[C@@H](O)COc3ccc(C)cc3C(C)=O)CC2)cc1 | 3470 nM

###

These molecules were tested on ATP-dependent translocase ABCB1 (Homo sapiens); pEC50 is the recorded read-out.
pEC50: −log10 of the molar value.
Measured property: pEC50

• Cc1ccccc1N1CCN(C[C@@H](O)COc2ccccc2[C@@H](O)CCc2ccccc2)CC1 = 7.35
• OC(CN1CCCCC1)C1Oc2ccccc2C1CCc1ccccc1 (stereo unspecified) = 6.19
• COc1ccc(C(=O)CCc2ccccc2)c(OC[C@H](O)CN2CCN(c3ccccc3C)CC2)c1 = 7.51
• O=C1C[C@H](CN2CCN(c3ccc(F)cc3)CC2)Oc2ccccc21 = 4.75
• CO[C@@H](CCc1ccccc1)c1ccccc1OC[C@H](O)CN1CCN(Cc2ccccc2)CC1 = 7.10
• CC(C)N(C[C@@H](O)COc1ccccc1[C@H](O)CCc1ccccc1)C(C)C = 5.76
• CC(=O)c1cccc(OC[C@H](O)CN2CCCCC2)c1 = 5.04
• O=C(c1ccccc1)c1ccccc1OC[C@H](O)CN1CCOCC1 = 4.87
• O=C(CCc1ccccc1)c1ccccc1OC[C@H](O)CNCC(c1ccccc1)c1ccccc1 = 6.10
• CC(C)[C@H](N[C@@H]1c2cc(C#N)ccc2OC(C)(C)[C@H]1O)C(=O)O = 5.32
• O=C(CCc1ccccc1)c1cc(OCc2ccccc2)ccc1OC[C@H](O)CN1CCN(Cc2ccccc2)CC1 = 6.94
• CC(=O)c1ccc(OC[C@H](O)CNCCC(c2ccccc2)c2ccccc2)cc1 = 6.75
• CC(C)[C@@H](CCl)N(C)[C@@H]1c2cc(C#N)ccc2OC(C)(C)[C@H]1O = 4.45
• O=C(CCc1ccccc1)c1ccc(OC[C@H](O)CN2CCN(c3ccc(F)cc3)CC2)cc1 = 5.60
• O=C(CCc1ccccc1)c1ccccc1OC[C@H](O)CNc1ccccc1 = 5.19
• Cc1ccccc1N1CCN(CC(O)COc2cccc(C(=O)CCc3cccc4ccccc34)c2)CC1 (stereo unspecified) = 7.15
• Cc1ccc(C(=O)N2c3ccccc3[C@@H](N(CCO)Cc3ccccc3)[C@@H](O)[C@H]2C)cc1 = 5.86
• CCC(=O)c1ccc(OC[C@H](O)CN2CCN(c3cccc(C)c3C)CC2)cc1 = 5.85
• O=C1C[C@H](CN2CCN(Cc3ccccc3)CC2)Oc2ccccc21 = 5.05
• O=C(CCc1cccc2ccccc12)c1ccccc1OC[C@H](O)CN1CCC(O)(c2ccccc2)CC1 = 7.12
• O[C@@H](COc1ccccc1[C@@H](O)CCc1ccccc1)CN1CCCCC1 = 6.06
• COc1ccc(OC[C@H](O)CN2CCN(c3ccccc3C)CC2)c(C(C)=O)c1 = 6.07
• Cc1c(C(=O)c2ccccc2)c(=O)n(-c2ccccc2)n1C[C@H](O)CNC(C)(C)C = 4.09
• Cc1ccccc1N1CCN(C[C@@H](O)COc2ccc(C(=O)c3ccccc3)cc2)CC1 = 6.30
• CC(C)[C@@H]1C(=O)O[C@@H]2[C@H](c3cc(C#N)ccc3OC2(C)C)N1C = 4.56
• O=C(/C=C/c1ccccc1)c1ccccc1OC[C@H](O)CN1CCCCC1 = 6.50

Data origin, for the record: ChEMBL document CHEMBL2449286
